From: ChEMBL document CHEMBL1132188

Biological target: Kappa-type opioid receptor (Cavia porcellus)
Sequence (P41144 whole entry): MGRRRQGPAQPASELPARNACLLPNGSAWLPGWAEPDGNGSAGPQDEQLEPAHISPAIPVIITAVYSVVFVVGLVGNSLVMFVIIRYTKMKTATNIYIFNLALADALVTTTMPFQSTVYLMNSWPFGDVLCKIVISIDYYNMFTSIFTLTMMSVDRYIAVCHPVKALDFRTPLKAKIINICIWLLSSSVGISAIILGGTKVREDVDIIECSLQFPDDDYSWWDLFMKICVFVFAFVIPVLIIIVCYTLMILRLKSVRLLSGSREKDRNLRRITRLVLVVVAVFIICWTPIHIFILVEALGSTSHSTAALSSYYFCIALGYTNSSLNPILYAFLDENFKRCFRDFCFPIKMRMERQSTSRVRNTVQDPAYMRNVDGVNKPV
Experiment: In vitro radioligand binding assay, for inhibition of [3H]U-69593 binding to Opioid receptor kappa 1, in guinea pig brain membranes, at highest concentration of 7000 nM tested
Type: cell membranes
Reported pKi values follow for various compounds
Please report pKi as the negative decimal logarithm of the molar concentration, giving only the number.

Q: Supply reported pKi belonging to this compound: CCN(CC)C(=O)c1ccc(C(c2ccccc2)N2CCN(C)CC2)cc1 (stereo not given)
Ans: 5.00

Q: Supply reported pKi belonging to this compound: CCCN1CCN(C(c2ccccc2)c2ccc(C(=O)N(CC)CC)cc2)CC1 (stereo not given)
Ans: 5.00

***
Q: Supply reported pKi belonging to this compound: CCN(CC)C(=O)c1ccc(C(c2ccccc2)N2CCCCC2)cc1 (stereo not given)
Ans: 5.00

Q: Supply reported pKi belonging to this compound: CCN(CC)C(=O)c1ccc(C(c2ccccc2)N2CCN(Cc3ccccc3)CC2)cc1 (stereo not given)
Ans: 5.70

Q: Supply reported pKi belonging to this compound: CCN(CC)C(=O)c1ccc(C(c2ccccc2)N2CCOCC2)cc1 (stereo not given)
Ans: 5.00

###

Molecular target: Mu-type opioid receptor (Rattus norvegicus, UniProt P33535)
Sequence (P33535 whole entry): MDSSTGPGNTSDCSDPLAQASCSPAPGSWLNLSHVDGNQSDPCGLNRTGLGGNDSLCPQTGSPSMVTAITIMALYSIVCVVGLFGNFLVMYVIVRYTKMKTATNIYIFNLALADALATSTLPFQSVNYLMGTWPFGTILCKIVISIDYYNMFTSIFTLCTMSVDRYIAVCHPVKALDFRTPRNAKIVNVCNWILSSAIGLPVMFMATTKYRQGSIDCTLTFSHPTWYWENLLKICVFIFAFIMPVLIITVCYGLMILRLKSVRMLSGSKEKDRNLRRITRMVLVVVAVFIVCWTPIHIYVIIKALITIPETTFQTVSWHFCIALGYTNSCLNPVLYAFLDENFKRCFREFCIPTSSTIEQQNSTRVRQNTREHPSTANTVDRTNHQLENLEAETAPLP
Experiment: In vitro radioligand binding assay, for inhibition of [3H]DAMGO (Tyr-D-Ala-Gly-(Me)-Phe-Gly-ol) binding to Opioid receptor mu 1 in rat brain membranes at highest concentration of 5600 nM tested
Type: cell membranes
property_label: pKi
Please report pKi as the negative decimal logarithm of the molar concentration, giving only the number.

Q: Supply reported pKi belonging to this compound: CCN(CC)C(=O)c1ccc(C(c2ccccc2)N2CCN(C)CC2)cc1 (stereo unspecified)
Ans: 5.00

###

Reported pKi values follow for various compounds
Target: Delta-type opioid receptor (Rattus norvegicus)
Sequence (P33533 whole entry): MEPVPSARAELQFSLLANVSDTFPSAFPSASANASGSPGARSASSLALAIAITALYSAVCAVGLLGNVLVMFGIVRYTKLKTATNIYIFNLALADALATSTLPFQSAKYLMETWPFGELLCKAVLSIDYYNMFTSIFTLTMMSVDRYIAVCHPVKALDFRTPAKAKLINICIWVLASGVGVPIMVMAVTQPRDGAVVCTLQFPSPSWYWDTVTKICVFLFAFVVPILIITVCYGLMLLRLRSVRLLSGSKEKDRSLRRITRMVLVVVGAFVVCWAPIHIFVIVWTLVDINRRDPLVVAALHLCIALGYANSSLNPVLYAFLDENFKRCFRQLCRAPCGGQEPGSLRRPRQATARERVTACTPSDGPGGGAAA
Experiment: In vitro binding affinity to Opioid receptor delta 1 in rat brain membranes by [3H]DADLE (Tyr-D-Ala-Gly-Phe-D-Leu) displacement.
Assay type: cell membranes
Please report pKi as the negative decimal logarithm of the molar concentration, giving only the number.

Before answering, review these 2 worked examples.
Q: Supply reported pKi belonging to this compound: C=CCN1CCC(C(c2ccc(C(=O)N(CC)CC)cc2)c2cccc(OC)c2)CC1 (stereo not given)
Ans: 7.57

Q: Supply reported pKi belonging to this compound: CCN(CC)C(=O)c1ccc(C(=C2CCN(Cc3ccccc3)CC2)c2cccc(OC)c2)cc1
Ans: 7.92

***
Q: Supply reported pKi belonging to this compound: CCN(CC)C(=O)c1ccc(C(c2cccc(OC)c2)C2CCN(C)CC2)cc1 (stereo not given)
Ans: 6.48

Q: Supply reported pKi belonging to this compound: CCN(CC)C(=O)c1ccc(C(c2ccccc2)N2CCN(C)CC2)cc1 (stereo not given)
Ans: 7.36

Q: Supply reported pKi belonging to this compound: CCN(CC)C(=O)c1ccc(C(c2ccccc2)N2CCNCC2)cc1 (stereo not given)
Ans: 8.31

###

Biological target: Mu-type opioid receptor (Rattus norvegicus, UniProt P33535)
Experiment: In vitro radioligand binding assay, for inhibition of [3H]-DAMGO (Tyr-D-Ala-Gly-(Me)-Phe-Gly-ol) binding to Opioid receptor mu 1 in rat brain membranes at highest concentration of 6600 nM tested
Format: cell membranes
property_label: pKi
Please report pKi as the negative decimal logarithm of the molar concentration, giving only the number.

Q: Supply reported pKi belonging to this compound: C=CCN1CCN(C(c2ccccc2)c2ccc(C(=O)N(CC)CC)cc2)CC1 (stereo unspecified)
Ans: 5.00
